Test system: LOX IMVI melanoma
Assay: NCI-60 one-dose screen, 48 h
Conditions: 10 µM unless noted
Protocol: Growth inhibition of the LOX IMVI human tumor cell line is measured as a screen for anti-cancer activity. Cells are grown in 96 well plates and exposed to the test compound for 48 hours. Compounds are tested at a single concentration, which is 10^-5 M for most compounds. The reported endpoint is percent growth (GI% or GIPRCNT), where numbers from 0 - 100% represent growth inhibition, and numbers from -100% - 0 represent cell death. For example, a value of 40 represents 60% growth inhibition. […]
The panel holds about 83,000 compounds, 20% with a hit somewhere; the sample as a whole holds those more often. Activity calls are given as the source filed them. Rule for the calls: active = growth percent below 10; inactive = the rest.
Respond using exactly one of the listed classes: active, inactive

Below are worked cases with known answers.
molecule=Clc1ccc(Nc2nnc(CNc3ccccc3)c3ccccc23)cc1 assigned_label=inactive
molecule=O=C(Cc1ccc(/C=C/C(=O)c2ncc[nH]2)cc1)Nc1cc(F)c(F)c(F)c1 assigned_label=active
molecule="Cc1ccc(NC(=O)c2sc3nc(C)c(C(O)c4ccccc4)cc3c2N)cc1 (centres undefined)" assigned_label=inactive
molecule=CSc1nc(-c2ccco2)c(C#N)c(=O)n1C assigned_label=inactive
molecule=CC(C)c1ccc2c(c1)CC[C@H]1[C@](C)(C(=O)OCC#CCN3CCCC3)CCC[C@]21C assigned_label=inactive

Enquiry: What was the test verdict on `COC(=O)c1c2c(c[n+]([O-])c1C)C(=O)C=C(NCc1ccccc1)C2=O` ?
Return: active

Enquiry: Also OC1CSSC1Cn1cnc2c(Nc3ccc(OCc4cccc(F)c4)c(Cl)c3)ncnc21 (centres undefined) ?
Return: active

Enquiry: Also `Cc1cc(O)cc(-c2nn(C)cc2-c2cc(N3CCOCC3)nc(-c3cccnc3)n2)c1` ?
Return: inactive

Enquiry: Also COc1cc2c(c(OC)c1OC)C(=O)CC(c1cccc(C(=O)Nc3ccc(C#N)cc3)c1)O2 (centres undefined) ?
Return: inactive

Enquiry: Also `Oc1c(CN2CCC(N3CCOCC3)CC2)cc(Cc2cc(CN3CCC(N4CCOCC4)CC3)c(O)c3ncccc23)c2cccnc12` ?
Return: active

====

system: MCF7 breast; experiment: NCI-60 one-dose screen, 48 h (100 = growth as untreated, 0 = no growth, -100 = all killed); conditions: 10 µM unless noted
Compounds without any hit were thinned out: in the full panel of roughly 83,000, 20% have a hit.
Cut-off 10% on growth: below means 1, at or above means 0.

Below are worked cases with known answers.
compound="COc1ccc2c(c1)C(C)Cc1c(ncnc1-n1cnc3cc(C)ccc31)N2C (centres undefined)" assigned_label=0
compound="COc1ccc(C(O)c2cc3c(N)c(C(=O)Nc4cccc5ccccc45)sc3nc2C)cc1 (centres undefined)" assigned_label=0
compound=COc1ccc(/C=C(\C(=O)NCc2cccnc2)S(=O)(=O)c2ccccc2)cc1OC assigned_label=0
compound=C=C1CC[C@@H]2C(C)(C)[C@H](O)CC[C@@]2(C)[C@@H]1COc1ccc2ccc(=O)oc2c1 assigned_label=0
compound=CCOC(=O)c1[nH]cc2c1CCc1sc(Nc3ccccn3)nc1-2 assigned_label=0
compound=CC(C)n1c2ccc(Br)cc2c2c3c(c4c5ccccc5ccc4c21)C(=O)NC3=O assigned_label=0

Enquiry: Find out if reported growth for `O=C(Oc1ccc2c(c1)sc1nc(-c3ccccc3)[nH]c(=O)c12)C(F)(F)F` is less than 10%
Return: 0

Enquiry: Also `O=C(NCc1ccc(Cn2c(=O)sn(-c3ccccc3)c2=O)cc1)OCc1ccc2cccc(O)c2n1` ?
Return: 1

Enquiry: Also `C[C@@H]1CN(c2cnc(C(=O)Nc3cc(F)cc4cccnc34)cn2)C[C@H](C)N1` ?
Return: 1
